Assay: Growth inhibition of VHL-positive human RCC4/VHL cells
Type: functional, cell-based
pIC50: −log10 of the molar value.
property: pIC50

Entry under review: NCCOCCOCCOCCOCCOCCOCCCc1ccc(S(=O)(=O)NCc2ccc(C(=O)Nc3cccnc3)cc2)cc1 . Reported pIC50?
< 4.40

====

Target: Hexokinase-2 (Homo sapiens)
Sequence (P52789 whole entry): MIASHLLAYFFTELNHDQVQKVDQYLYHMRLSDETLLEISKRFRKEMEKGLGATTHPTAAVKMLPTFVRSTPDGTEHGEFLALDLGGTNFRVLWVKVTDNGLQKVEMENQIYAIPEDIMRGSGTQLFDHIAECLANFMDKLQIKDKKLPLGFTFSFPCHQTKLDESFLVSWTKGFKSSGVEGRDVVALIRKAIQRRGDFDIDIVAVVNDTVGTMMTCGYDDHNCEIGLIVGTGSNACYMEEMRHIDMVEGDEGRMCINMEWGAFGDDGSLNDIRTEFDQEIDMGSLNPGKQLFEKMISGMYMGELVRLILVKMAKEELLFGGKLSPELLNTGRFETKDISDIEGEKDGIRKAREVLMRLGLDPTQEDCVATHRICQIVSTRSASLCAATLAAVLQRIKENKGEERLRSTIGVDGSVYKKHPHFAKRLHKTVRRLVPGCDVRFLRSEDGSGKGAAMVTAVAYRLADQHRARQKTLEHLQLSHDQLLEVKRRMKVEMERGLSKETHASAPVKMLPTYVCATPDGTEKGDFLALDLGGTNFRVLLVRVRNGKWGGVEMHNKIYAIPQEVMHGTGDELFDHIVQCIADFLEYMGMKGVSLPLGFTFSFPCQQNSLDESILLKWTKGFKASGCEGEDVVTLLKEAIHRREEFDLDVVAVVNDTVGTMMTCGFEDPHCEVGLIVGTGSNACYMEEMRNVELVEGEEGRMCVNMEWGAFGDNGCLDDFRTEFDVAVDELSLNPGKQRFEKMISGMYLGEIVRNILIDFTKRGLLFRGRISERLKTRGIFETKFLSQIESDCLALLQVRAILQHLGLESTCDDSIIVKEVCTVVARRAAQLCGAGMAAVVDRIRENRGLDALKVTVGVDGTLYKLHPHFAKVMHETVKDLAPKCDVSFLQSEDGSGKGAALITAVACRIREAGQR
property: IC50

Entry under review: Cc1ccc(S(=O)(=O)NC[C@H]2O[C@@H](O)[C@H](NC(=O)/C=C/c3ccc(Cl)c(Cl)c3)[C@@H](O)[C@@H]2O)cc1 . Reported IC50?
< 316 nM

====

Assay: Growth inhibition of VHL deficient human RCC4 cells
Format: functional, cell-based
property: IC50
Give me the value, and tack the unit on after it.

Entry under review: NCCOCCOCCOCCOCCOCCOCCCc1ccc(S(=O)(=O)NCc2ccc(C(=O)Nc3cccnc3)cc2)cc1 . Reported IC50?
7.9 µM
